systemTested: T1, human insulin-like growth factor binding protein 4 (IBP4) (human, UniProt P22692 22-258)
T1 construct: also called IBP4 protein; IGFBP4
T1 sequence: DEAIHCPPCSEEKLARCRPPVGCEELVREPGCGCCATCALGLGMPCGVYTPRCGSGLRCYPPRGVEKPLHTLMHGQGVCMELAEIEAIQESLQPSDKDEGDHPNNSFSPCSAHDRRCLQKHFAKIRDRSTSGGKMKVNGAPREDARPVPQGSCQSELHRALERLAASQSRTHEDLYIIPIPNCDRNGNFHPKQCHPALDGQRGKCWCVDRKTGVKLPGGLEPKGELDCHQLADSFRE
protocolText: AC-MS, mAb on M-PVA beads, QC2 serum, round 3 (beads reused)
recordedMetric: ave RR
Answers are plain numbers.

The binder listed as anti-IBP4 antibody 5C11.A7 (antibody, mouse IgG1, kappa, V domains shown, Mouse hybridoma mAb raised against FL IBP4; also called IBP4-5C11.A7) VH: QVQLQQSGAELVRPGASVTLSCKASGYTFTDYEMHWVRQTPVHGLEWIGAIDTETGGPAYNQKFKGKAILTADKSSSTAYMELRSLTSEDSAVYFCTRARGSRSVYYFDNWGQGTTLTVSS VL: DIVMTQSQKFMSTSVGDRVSVTCKASQNVGTNVAWYQQKPGHSPKVLIYSASYRHSGVPDRFTGSGSGTDFTLTIGNVQSEDLADYFCQQYDTYPLTFGSGTKLEIKR has a reported ave RR of 0.619

Origin of the recorded values: patent US20250101096A1
